# System: Enterococcus faecium ATCC700221
# measurement_notes: MIC panel of challenge pathogens (CLSI)
# Format: cell-based
# condition_summary: Enterococcus faecium ATCC700221; read-out: 100% inhibition
Below, each entry is listed alongside its reported MIC.
Give the quantity in µg/mL, number only.

Examples with answers:
Q. Tell me the measured MIC of "Cc1cc(Cl)ccc1-c1cc(-c2nnn[nH]2)sc1-c1ccc(Cl)cc1C" , please.
A. 0.5

Q. Tell me the measured MIC of "Cc1cc(Cl)ccc1-c1cc(-c2nnn[nH]2)sc1-c1ccc(C)c2ccccc12" , please.
A. 0.5

Q. Tell me the measured MIC of "Clc1ccc(-c2cc(-c3nnn[nH]3)sc2-c2ccc(Cl)cc2)cc1" , please.
A. 1

Q. Tell me the measured MIC of "Clc1ccc(Cc2sc(-c3nnn[nH]3)cc2-c2cccc(CC3CCCC3)c2)cc1" , please.
A. 0.5

Q. Tell me the measured MIC of "Fc1ccc(-c2cc(-c3nnn[nH]3)sc2-c2ccc(F)c3ccccc23)c2ccccc12" , please.
A. 0.5

***
Q. Tell me the measured MIC of "CCCCc1cccc(-c2cc(-c3nnn[nH]3)sc2Cc2ccc(Cl)cc2)c1" , please.
A. 1

Q. Tell me the measured MIC of "CC(C)c1cc(Cl)ccc1-c1cc(C(=O)O)sc1-c1ccc(Cl)cc1C(C)C" , please.
A. 0.5

Q. Tell me the measured MIC of "Cc1ccc(Cl)cc1-c1cc(-c2nnn[nH]2)sc1-c1cc(Cl)ccc1C" , please.
A. 1

---

# System: Staphylococcus aureus NRS384
# measurement_notes: MIC panel of challenge pathogens (CLSI)
# Assay type: cell-based
# condition_summary: Staphylococcus aureus NRS384; read-out: MIC50 (50%)
measured_parameter: MIC50 (µg/mL)
Give the quantity in µg/mL, number only.

Examples with answers:
Q. Tell me the measured MIC50 of "CC(C)c1cc(Cl)ccc1-c1cc(C(=O)O)sc1-c1ccc(Cl)cc1C(C)C" , please.
A. 0.5

Q. Tell me the measured MIC50 of "Clc1ccc(-c2cc(-c3nnn[nH]3)sc2-c2ccc(Cl)cc2)cc1" , please.
A. 1

Q. Tell me the measured MIC50 of "Cc1ccc(Cl)cc1-c1cc(-c2nnn[nH]2)sc1-c1cc(Cl)ccc1C" , please.
A. 1

Q. Tell me the measured MIC50 of "Cc1cc(Cl)ccc1-c1cc(-c2nnn[nH]2)sc1-c1ccc(Cl)cc1C" , please.
A. 0.5

Below: the item to evaluate.
Q. Tell me the measured MIC50 of "Cc1cc(Cl)ccc1-c1cc(-c2nnn[nH]2)sc1-c1ccc(C)c2ccccc12" , please.
A. 0.5

---

Below, each entry is listed alongside its reported MIC50.
# Test system: Staphylococcus aureus AUR59 7005
# measurement_notes: MIC panel of challenge pathogens (CLSI)
# Format: cell-based
# condition_summary: AUR597005; Staphylococcus aureus AUR59 7005; read-out: MIC50 (50%)
# Experimental: The inocula for each bacterial strain were prepared by picking 5-10 distinct colonies from the culture plates and suspending them in the appropriate broth as per Clinical and Laboratory Standards Institute (CLSI) guidelines M07-A8, M24-A or M11-A7 as appropriate. […] 100 μL of the appropriate inoculum suspension in the appropriate media, as per CLSI guidelines, was added to the appropriate wells. […] Plates were read visually 24-48 hours post inoculation. […]
Give the quantity in µg/mL, number only.

Q. // fetch Staphylococcus aureus AUR59 7005 MIC50 for Clc1ccc(Cc2sc(-c3nnn[nH]3)cc2-c2cccc(CC3CCCC3)c2)cc1 [DNM0610]
A. 0.5

Q. // fetch Staphylococcus aureus AUR59 7005 MIC50 for Cc1cc(Cl)ccc1-c1cc(-c2nnn[nH]2)sc1-c1ccc(Cl)cc1C [DNM0488]
A. 0.5

Below: the item to evaluate.
Q. // fetch Staphylococcus aureus AUR59 7005 MIC50 for Clc1ccc(-c2cc(-c3nnn[nH]3)sc2-c2ccc(Cl)cc2)cc1 [DNM0487]
A. 1

---

# Test system: Staphylococcus aureus AUR131 007035
# measurement_notes: MIC panel of challenge pathogens (CLSI)
# Format: cell-based
# condition_summary: AUR131007035; Staphylococcus aureus AUR131 007035; read-out: 100% inhibition
# Experimental: The inocula for each bacterial strain were prepared by picking 5-10 distinct colonies from the culture plates and suspending them in the appropriate broth as per Clinical and Laboratory Standards Institute (CLSI) guidelines M07-A8, M24-A or M11-A7 as appropriate. […] 100 μL of the appropriate inoculum suspension in the appropriate media, as per CLSI guidelines, was added to the appropriate wells. […] Plates were read visually 24-48 hours post inoculation. […]
Below, each entry is listed alongside its reported MIC.

Examples with answers:
Q. // fetch Staphylococcus aureus AUR131 007035 MIC for CC(C)c1cc(Cl)ccc1-c1cc(C(=O)O)sc1-c1ccc(Cl)cc1C(C)C [DNM0566]
A. ≤ 0.25 µg/mL

Q. // fetch Staphylococcus aureus AUR131 007035 MIC for Cc1cc(Cl)ccc1-c1cc(-c2nnn[nH]2)sc1-c1ccc(Cl)cc1C [DNM0488]
A. 0.5 µg/mL

Q. // fetch Staphylococcus aureus AUR131 007035 MIC for CC(C)c1cc(Cl)ccc1-c1cc(-c2nnn[nH]2)sc1-c1ccc(Cl)cc1C(C)C [DNM0548]
A. 0.5 µg/mL

Q. // fetch Staphylococcus aureus AUR131 007035 MIC for Cc1ccc(Cl)cc1-c1cc(-c2nnn[nH]2)sc1-c1cc(Cl)ccc1C [DNM0508]
A. 1 µg/mL

Q. // fetch Staphylococcus aureus AUR131 007035 MIC for Clc1ccc(Cc2sc(-c3nnn[nH]3)cc2-c2cccc(CC3CCCC3)c2)cc1 [DNM0610]
A. 0.5 µg/mL

***
Q. // fetch Staphylococcus aureus AUR131 007035 MIC for Fc1ccc(-c2cc(-c3nnn[nH]3)sc2-c2ccc(F)c3ccccc23)c2ccccc12 [DNM0537]
A. ≤ 0.25 µg/mL

Q. // fetch Staphylococcus aureus AUR131 007035 MIC for Clc1ccc(-c2cc(-c3nnn[nH]3)sc2-c2ccc(Cl)cc2)cc1 [DNM0487]
A. 1 µg/mL

Q. // fetch Staphylococcus aureus AUR131 007035 MIC for CCCCc1cccc(-c2cc(-c3nnn[nH]3)sc2Cc2ccc(Cl)cc2)c1 [DNM0606]
A. 0.5 µg/mL

Q. // fetch Staphylococcus aureus AUR131 007035 MIC for Cc1cc(Cl)ccc1-c1cc(-c2nnn[nH]2)sc1-c1ccc(C)c2ccccc12 [DNM0576]
A. 0.5 µg/mL

---

Below, each entry is listed alongside its reported MIC80.
# Test system: Staphylococcus epidermidis NRS122
# measurement_notes: MIC panel of challenge pathogens (CLSI)
# Format: cell-based
# condition_summary: Staphylococcus epidermidis NRS122; read-out: MIC80 (80%)
Give the quantity in mg/L, number only.

Examples with answers:
Q. // fetch Staphylococcus epidermidis NRS122 MIC80 for "CC(C)c1cc(Cl)ccc1-c1cc(-c2nnn[nH]2)sc1-c1ccc(Cl)cc1C(C)C"
A. 1

Q. // fetch Staphylococcus epidermidis NRS122 MIC80 for "Fc1ccc(-c2cc(-c3nnn[nH]3)sc2-c2ccc(F)c3ccccc23)c2ccccc12"
A. 4

Q. // fetch Staphylococcus epidermidis NRS122 MIC80 for "Cc1cc(Cl)ccc1-c1cc(-c2nnn[nH]2)sc1-c1ccc(Cl)cc1C"
A. 2

Q. // fetch Staphylococcus epidermidis NRS122 MIC80 for "Cc1ccc(Cl)cc1-c1cc(-c2nnn[nH]2)sc1-c1cc(Cl)ccc1C"
A. 8

Q. // fetch Staphylococcus epidermidis NRS122 MIC80 for "Clc1ccc(-c2cc(-c3nnn[nH]3)sc2-c2ccc(Cl)cc2)cc1"
A. 4

Q. // fetch Staphylococcus epidermidis NRS122 MIC80 for "CC(C)c1cc(Cl)ccc1-c1cc(C(=O)O)sc1-c1ccc(Cl)cc1C(C)C"
A. 2

***
Q. // fetch Staphylococcus epidermidis NRS122 MIC80 for "Cc1cc(Cl)ccc1-c1cc(-c2nnn[nH]2)sc1-c1ccc(C)c2ccccc12"
A. 2

Q. // fetch Staphylococcus epidermidis NRS122 MIC80 for "CCCCc1cccc(-c2cc(-c3nnn[nH]3)sc2Cc2ccc(Cl)cc2)c1"
A. 4

Q. // fetch Staphylococcus epidermidis NRS122 MIC80 for "Clc1ccc(Cc2sc(-c3nnn[nH]3)cc2-c2cccc(CC3CCCC3)c2)cc1"
A. 8

---

# target_of_assay: AcpS enzyme (Escherichia coli, UniProt P24224)
# Sequence (P24224 whole entry): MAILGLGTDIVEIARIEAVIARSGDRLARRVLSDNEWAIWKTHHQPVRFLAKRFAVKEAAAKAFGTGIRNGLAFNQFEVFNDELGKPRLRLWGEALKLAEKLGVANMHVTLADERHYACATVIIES
# measurement_notes: Measurement of AcpS inhibition ([3H]acetyl-CoA incorporation into apo-ACP)
# Type: biochemical
# condition_summary: test compound 50 uM; % activity vs blank-subtracted counts
measured_parameter: % AcpS activity at 50 uM

Examples with answers:
Q. Tell me the measured % AcpS activity at 50 uM of "Cc1ccc(-c2cc(-c3nn[nH]n3)cc(-c3ccc(C)cc3Br)c2)c(Br)c1" , please.
A. 14.36%

Q. Tell me the measured % AcpS activity at 50 uM of "c1ccc(-c2ccccc2-c2cc(-c3nn[nH]n3)cc(-c3ccccc3-c3ccccc3)c2)cc1" , please.
A. 9.03%

***
Q. Tell me the measured % AcpS activity at 50 uM of "Cc1ccc(-c2cc(-c3nn[nH]n3)cc(-c3cc(Cl)ccc3N(C)C)c2)c2ccccc12" , please.
A. 5.73%

Q. Tell me the measured % AcpS activity at 50 uM of "Clc1cccc(-c2ccccc2-c2cc(-c3nn[nH]n3)cc(-c3ccccc3-c3cccc(Cl)c3)c2)c1" , please.
A. 25.28%

Q. Tell me the measured % AcpS activity at 50 uM of "Cc1cc(Cl)ccc1-c1cc(-c2nn[nH]n2)cc(-c2ccc(Cl)cc2C)c1" , please.
A. 1.56%

Q. Tell me the measured % AcpS activity at 50 uM of "c1ccc(-c2cc(-c3nnn[nH]3)sc2-c2ccccc2)cc1" , please.
A. 92.62%

Q. Tell me the measured % AcpS activity at 50 uM of "Cc1ccc(-c2cc(-c3nn[nH]n3)cc(-c3ccc(C)cc3-c3ccccc3)c2)c(-c2ccccc2)c1" , please.
A. 32.01%

Q. Tell me the measured % AcpS activity at 50 uM of "Cc1ccccc1-c1cc(-c2nn[nH]n2)cc(-c2ccccc2C)c1" , please.
A. 91.56%
